Below: a set of entries, each annotated with reported melting point.

CC(C)(O)C1(NC(=O)c2c[nH]c3ncc(C4CC4)nc23)CCCC1 = 232 to 234 °C

API: the following record is the query input.
Query: For CC(C)(O)C1(NC(=O)c2c[nH]c3ncc(C4CC4)nc23)CCC1 , what is its reported melting point?
Response: 264 to 266 °C

----------
- assayed-system: JAK3: Recombinant human kinase domain (h-jak3-sf21-c) (Homo sapiens, UniProt P52333)
- Construct: JAK3: Recombinant human kinase domain from Millipore (Cat # 14-629) or prepared
- Sequence (P52333 822-1111 limits assumed): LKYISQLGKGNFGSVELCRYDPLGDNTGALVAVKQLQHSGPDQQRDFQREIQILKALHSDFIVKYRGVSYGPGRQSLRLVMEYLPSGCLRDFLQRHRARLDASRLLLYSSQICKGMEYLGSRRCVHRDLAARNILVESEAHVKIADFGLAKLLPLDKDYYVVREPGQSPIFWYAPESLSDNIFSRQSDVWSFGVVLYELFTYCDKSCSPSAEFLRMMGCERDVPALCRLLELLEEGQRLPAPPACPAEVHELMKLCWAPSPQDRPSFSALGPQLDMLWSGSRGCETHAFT
- experimental-details: Determination of IC50 of Janus Kinase (JAK) inhibition, JAK3 (radioactive end-point assay with 33P-ATP)
- conditions-used: ATP 1.5 uM, peptide 50 uM, 20 minutes, room temperature
pIC50: −log10 of the molar value.
Definition: the class of an entry is the range in low: < 7; intermediate: ≥ 7 and < 8; high: ≥ 8 that contains its pIC50.

CC(C)(O)C1(NC(=O)c2c[nH]c3ncc(C4CC4)nc23)CCNC1 (centres unmarked) [Compound I-17] = low
CCS(=O)(=O)N1CCCC(NC(=O)c2c[nH]c3ncc(C4CC4)nc23)C1 (centres unmarked) [Compound I-27] = intermediate
CC1(C)CCN(S(C)(=O)=O)CC1NC(=O)c1c[nH]c2ncc(C3CC3)nc12 (centres unmarked) [Compound I-35] = high
CCCS(=O)(=O)N1CCCC(NC(=O)c2c[nH]c3ncc(C4CC4)nc23)C1 (centres unmarked) [Compound I-28] = intermediate
O=C(NC1CCCCC1)c1c[nH]c2ncc(Oc3ccc(F)cc3F)nc12 [Compound I-34] = low

Query: Hi there! Could you help me figure out the category for CC(C)(O)C1(NC(=O)c2c[nH]c3ncc(C4CC4)nc23)CCC1 [Compound I-13] please?
Response: intermediate

Query: And the next one, CC(=O)N1CCC(NC(=O)c2c[nH]c3ncc(C4CC4)nc23)CC1 [Compound I-36] ?
Response: low

Query: Now consider CC1(C)CCCC1NC(=O)c1c[nH]c2ncc(C3CC3)nc12 (centres unmarked) [Compound I-7] .
Response: high

Query: # repeat for O=C(NC1CCOCC1)c1c[nH]c2ncc(C3CC3)nc12 [Compound I-1]
Response: intermediate

Query: Another compound to check: CC1(C)CCCCC1NC(=O)c1c[nH]c2ncc(C3CC3)nc12 (centres unmarked) [Compound I-32]
Response: high

Query: Next entry: CC(C)(O)C1(NC(=O)c2c[nH]c3ncc(C4CC4)nc23)CCCCC1 [Compound I-14]
Response: intermediate
